Target: human Werner helicase (WRN, amino acids 517-1235 with L1074F point mutation) (Homo sapiens (Human), UniProt Q14191, L1074F)
Sequence (Q14191 other isoform, or with tags, fused parts or gaps L1074F (already in the parent)): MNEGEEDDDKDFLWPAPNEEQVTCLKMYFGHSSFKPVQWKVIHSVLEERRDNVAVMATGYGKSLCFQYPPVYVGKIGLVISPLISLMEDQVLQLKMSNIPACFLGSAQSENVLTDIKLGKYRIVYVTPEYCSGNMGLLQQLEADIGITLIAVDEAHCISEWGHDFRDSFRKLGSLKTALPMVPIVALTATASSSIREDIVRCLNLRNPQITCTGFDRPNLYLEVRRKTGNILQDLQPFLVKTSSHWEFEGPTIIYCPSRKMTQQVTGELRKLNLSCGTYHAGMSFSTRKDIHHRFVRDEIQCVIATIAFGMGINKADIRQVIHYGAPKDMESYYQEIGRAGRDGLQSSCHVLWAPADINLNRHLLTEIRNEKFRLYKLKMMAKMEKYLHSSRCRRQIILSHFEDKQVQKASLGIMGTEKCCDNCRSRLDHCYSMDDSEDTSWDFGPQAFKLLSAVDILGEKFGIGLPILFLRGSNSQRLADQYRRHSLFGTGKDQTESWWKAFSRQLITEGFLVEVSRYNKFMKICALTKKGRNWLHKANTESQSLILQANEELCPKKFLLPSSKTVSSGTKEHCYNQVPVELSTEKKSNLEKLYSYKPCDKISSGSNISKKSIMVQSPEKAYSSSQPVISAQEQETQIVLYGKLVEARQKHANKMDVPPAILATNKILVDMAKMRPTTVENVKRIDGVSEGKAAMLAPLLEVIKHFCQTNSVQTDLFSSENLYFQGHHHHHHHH
Experiment: WRN (BV08) ADP-Glo assay
Settings: human WRN (aa 517-1235, L1074F), read-out: ADP-Glo_hWRN_IC50
Description: Bovine skin gelatin (BSG), dimethyl sulfoxide (DMSO), Pluronic F-127 and tris(2-carboxyethyl)phosphine hydrochloride solution (TCEP) were purchased from Sigma-Aldrich (St. Louis, MO) at the highest level of purity possible. […] The reaction was stopped by the addition of the ADP-Glo Kit components (Promega; Madison, WI) as directed and the relative luminescence units (RLU) were read on an Envision 2104 (Perkin Elmer; Waltham, MA). […]
VALUE_TYPE: IC50

Here are 3 compounds together with their reported answers.
COMPOUND	IC50
CCc1c(N2CCN(C(=O)c3ncnc(C)c3O)[C@H]3CC[C@@H]32)c(=O)c2nn(-c3ccnc(OC)c3)nc2n1CC(=O)NC1CC2(CCCC2)C1 [Compound I-89]	5 to 50 nM
CCc1c(C2=CCN(C(=O)c3ncnc(C)c3O)C[C@H]2C)c(=O)c2nn(-c3ccnc(OC)c3)nc2n1CC(=O)NC12CC(C(C)C)(C1)C2 (single isomer, unassigned) [Compound I-80]	5 to 50 nM
CCc1c(N2CCN(C(=O)c3ncnc(C)c3O)[C@H]3CC[C@@H]32)c(=O)c2nn(-c3ccnc(OC)c3)nc2n1CC(=O)Nc1ccc(C(F)F)cc1Cl [Compound I-82]	≤ 5 nM

Requested read-out: IC50. Entry: CCc1c(N2CCN(C(=O)c3ncnc(C)c3O)CC2)c(=O)c2nn(-c3ccncc3)nc2n1CC(=O)NC12CC(CC)(C1)C2 [Compound I-138]
5 to 50 nM

Thanks! And CCc1c(N2CCN(C(=O)c3c(O)ccc(C)c3OC)CC2)c(=O)c2nn(-c3ccnc(OC)c3)nc2n1CC(=O)NC12CC(C3CC3)(C1)C2 [Compound I-110] ?
5 to 50 nM

What about this compound? CCc1c(N2CCN(C(=O)c3ccccc3OC)[C@H]3CC[C@@H]32)c(=O)c2nn(C3=CCOCC3)nc2n1CC(=O)NC12CC(C(C)C)(C1)C2 [Compound I-53]
5 to 50 nM
